Recorded abundance fitness by entry
B1: Far upstream element-binding protein 1, residues 98 to 169; numbered along this chain, Q96AE4 (parent)
chain: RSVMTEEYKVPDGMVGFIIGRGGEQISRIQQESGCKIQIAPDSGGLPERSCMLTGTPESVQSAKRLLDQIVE

- Variants of: B1
- experimental details: abundance fitness (aPCA) (normalised: wild type 0, dead -1); higher = more abundant; growth selection in yeast, the domain comes from the species named
- experimental context: Homo sapiens
The reply should be a number, written without any unit.

R28G = -0.093
L46K = -0.006
R21C = -0.119
Q25M = -0.027
S27A = 0.024
R1D = 0.042
C51L = -0.019
M14I = -0.037
D68G = 0.014
P57W = -0.104

--- query ---
Given the entry "V15G" , report its measured abundance fitness.
-0.136

All values here come from the Human Domainome abundance scans (Beltran et al. 2025).
